Where do these numbers come from? They come from the DeepSol protein solubility set.

assay-comment: soluble on expression in E. coli; label from the status in PepcDB or PDB records
measured-quantity: soluble on expression in E. coli

• MAHHHHHHMATSSHRTAMSSLSAAMKQYVQQAAEDDVVCAFGPDYFHGARTGACVGSLFSATLCWYTFRLLKEDQREVDFLAGLKHGQRNPHFSTWTLLRGLRTQPMLTTGCIALATTSAMKCIKCYLANQRCREFFTDDVQFHMISELSETDLDAAAFLSTVLHNANGCGVGARNALSTLREDRSEDQPSMSPAPTASASTSTVNGLLHTHSSRLDSKEFTLTHRAPTYYDGVAVAFLGSVLDCYLPQKPVQKYYNMRVGTW = not soluble
• MSQSDLVTIKNLRFSRSQRVIFDDIDLHVPKGKVTAIMGPSGIGKTTLLRLIGGQLLPEQGEIWFDGENIPTLSRRKLYRARKKMSMLFQSGALFTDLNVFDNVAYPLREHTELDEAMIKTLVLLKLEAVGLRGAAYLMPSELSGGMARRAALARAIALDPELIMYDEPFVGQDPITMGVLVELIRNLNRALGVTSVVVSHDVPEVMSIADWVYLLADGKVIAQGSPQALRDNPDPRVQQFLCGDADGPVPFRFPAQPIEQELFSAK = not soluble

* * *

assay-comment: soluble on expression in E. coli; label from the status in PepcDB or PDB records
measured-quantity: soluble on expression in E. coli

* GSKESPLHGTQNTINKRTQPTFGFTVNWKFSESTTVFTGQCFIDRNGKEVLKTMWLLRSSVNDIGDDWKATRVGIMIFTRLRTQKEGGSGGSARKCSLTGKWTNDLGSNMTIGAVNSRGEFTGTYITAVT | soluble
* MGSDKIHHHHHHMCRWLAYTGNPIPLETVLFRAKHSLIDQSLHSRMGATTTNGDGFGIGWYGQPDEVPFIYRCVSPAWNDRNLREAARAIRSPLFVAHVRSATDTPVQETNCHPFRRGRWLFAHNGLIRRYHTLRRDLMMRIDPGLFASIEGSTDSEVMFHLALTFGLEHDPLAALERMAGAIEDAGAHHRVDAPLNMTVCATDGEQVVAVRYSSEHDSRSLFHSTSFRHLHELYPHDPRIRAIGDDAFLVLSEPLVDLHDAWEKIPESTAIIARRGDIRQVPFQPRRST | not soluble
* MAFRVLVIGGYGNFGSLICNHLAMMPDIELVISGRDPRKLAEKVAALQTLAGRFCQSWCVDIMQDGAGSELGELGIDLLIHTAGPFQGQSYAVARHCIAAGVNYCDLSDCRTFVSGIATLDALAREAGVCVLSGCSSVPTLSAAIIDQHRQRFLRIDSIEHGISSAAKMPGLSTVR | not soluble
* SSSSSSPAIEPDTPDLICQLDNVQGMVDALTCVRWKRHQDALVELSEHGIVLIVEESGCLQAKVYLQRELFTKYEYGAQGRPRFGISLGLLVDCLNTFSSPGHSNTIEIKYPGPDMELLLKSVDTLNSCIYSEIRTRIPETVTWDYNFEQAGIAPLTFTVKSAALKEAIDDLEWPGSSVQISLQKEPPCVIFRGEGHGDLQIDFMYYANTDLLLAFHCDTEVSYGYKYKFLKATTANIPGNVVRENRRSKLTIGRGGMLKVQHLVSVSKALAPQVESAGYQPPSRIAYIEFFVKPEEPAD | soluble

* * *

assay-comment: soluble on expression in E. coli; label from the status in PepcDB or PDB records
measured-quantity: soluble on expression in E. coli

* MGSSHHHHHHSSGLVPRGSHMQQLPKAIIIGVRKGGTRALLEMLNLHPAVVKASQEIHFFDNDENYGKGIEWYRKKMPFSYPQQITIEKSPAYFITEEVPERIYKMNSSIKLLIIVREPTTRAISDYTQVLEGKERKNKTYYKFEKLAIDPNTCEVNTKYKAVRTSIYTKHLERWLKYFPIEQFHVVDGDRLITEPLPELQLVEKFLNLPPRISQYNLYFNATRGFYCLRFNEIFNKCLAGSKGRIHPEVDPSVITKLRKFFHPFNQKFYQITGRTLNWP | soluble
* MATAADSVYSIESPKAAKSLMLDVVHAGKRLVAVGDRGHILYSDDQGQTWVQAKVPTRQLLTAVYFVDDKRGWAVGHDAQVLASSDGGATWTRQFQDLKREAPLLDVWFKDTQTGYAVGAYGALLETSDGGQHWEDVSDRLDNEDQFHLNAIAQVKDSGLFIVGEQGSMFRSADDGQTWERLEGPYEGSLFGVIGTGQPATLLVYGLRGNLYRSTDFGSTWEQVELEHHHHHH | soluble

* * *

assay-comment: soluble on expression in E. coli; label from the status in PepcDB or PDB records
measured-quantity: soluble on expression in E. coli

* MARGPKKHLKRLAAPKAWMLDKLGGVFAPRPSTGPHKLRESLPLLIFLRNRLKYALNGAEVTKIVMQRLVKVDGKVRTDPTYPAGYMDVITLEKTGEFFRLVYDVKGRFVIHRISAEEAKYKLCKVKKTQLGAKGVPFLVTHDGRTIRYPDPLIHANDSVQVDIASGKITDYIKFDSGNLCMITGGRNLGRVGTVVNRERHPGSFDIVHIKDSQGHVFATRLTNVFIIGKGNKPYISLPKGKGVKLSIAEERDKRLAAKTH | not soluble
* GPGSMIQSDIVSYVGEMGDVPDALLITPLKDRKSSVYLTKYEVARIIGERARQIVNGTSVLLDSQNGCGTGNSLELAEGCADPFAASVDPIHITKLELLQGRIPMIVRRTWPDGRTENIPVNELKVDKMLLDVQH | not soluble
* MGSDKIHHHHHHMSIDTITLQCFLAVAETQSFTKAAQRVGRTQSAISQQIAKLENLIEKPLINRGRELSLTTDGEIFLGYAKRIYELHRESLDRFKAPELQGEIRFGLPEDFASIILSDVLVEFSRLHPRVLLNVECDLTLNLIERFNEGKFDLILIKTTQQQVGSESIYVCTEPVEWIGKKELLPLLDKPGPIPLVLSPTPCVYRGNVIDTLDKNHIDWRLVYSSASYAGKMAAVRAGLGITAIQRSMIPNYLERLDYDFLPILNDVHVSLLKKSGSNKAIESLEFFILQKLKY | not soluble

* * *

assay-comment: soluble on expression in E. coli; label from the status in PepcDB or PDB records
measured-quantity: soluble on expression in E. coli

- MAELDIGQHCQVQHCRQRDFLPFVCDGCSGIFCLEHRSKDSHGCSEVNVVKERPKTDEHKSY: soluble
- MGSDKIHHHHHHMTTIPSTAEAKLEMLTTINRAIAGSRPEALPPYPVPAPLSRAEILHQFEDRILDYGAAYTHVSAAELPGAIAKALGNARRVIVPAGIPAPWLTVGMDVLRDEPPLSHAELDRADAVLTGCAVAISETGTIILDHRADQGRRALSLIPDFHICVVREDQIVQTVREGVEAVAASVREGRPLTWLSGGSATSDIELVRVEGVHGPRRLQVIVVG: soluble
- MSLRASTVKQHAFGLLIPELGQTEIFEPICQGMVAAQEAHNHVLIWGRSLAGSETTEADAKDVCARLISNRVSGVFFAPIEANPQKDAINRIISTMLSDAKIPIVLLDRDIVDYPQRSKFDVVGIDNRRAGCVATQHLIDAGCRRIGFIGRPHLAPSCVARCNGYRETVSNSSIPLAPTFAERLDPSDPILVGKVMDRHKPDGIVCSNDRTAALLMRTFATLKIAVPDQVRLVAFDDVKYASLVTVPLTTIHQPCDQLGAAAIQAMVQRIESPDMPPRDILVDFHLVVRESCGARMAREGHHHHHH: soluble

* * *

assay-comment: soluble on expression in E. coli; label from the status in PepcDB or PDB records
measured-quantity: soluble on expression in E. coli

- MVETPPAWVLLKRARERIYTLPPDFPGFRARLGLCLDGVWYVGAVEAEGFAPKTLGLFGEAGAIAEKELGSLLGHRRPAPFEEGEGRYPMRLFAEGPLGTGIALEDPFRSRIWVKEGRLALIERHLPEGSFRIHLETWREVGERLLPHRFLLVHRDPRGHLLKVERFRDEYAQVGPYWLPVEREVVVEGEGLGVLVLRLEEVEVKG: soluble
- TDAFFFAGFLPNAAAARKTRLETLRGVPGTLVFYESPKRLAASLRDMAEVLGGERPAALCRELTKKFEETRRDTLAGLAEALAEAPVKGEVVLLVDRARSG: not soluble
- MGSDKIHHHHHHVGAGHPRKELEGKAKATKQQQDLKKLLSGQKHVAFPQQVVALPFDASANLTALVYEPLLPLQYSDYKGAQLITGLRKIHEKNVVHGDISVRNIMQSKQGVAKFIDLNPMDPLSESKKSRDIRYLGKSLLEMKFAKSLEQENHRMLSYIAKHEDIYSKAQSNQAYQELKYNNAWFTYSLTQSGSIEKVPGDMDTFLELLGMEEIIKRDLEKQAGEVFSFDGKFAKFISEQPDPENTDFTAMALYMLEHGQIPNNADGILAKLLRVKQ: not soluble
- MQKRVTDEEIKERLGKIKSRIAVMSGKGGVGKSTVTALLAVHYARQGKKVGILDADFLGPSIPILFGLRNARIAVSAEGLEPVLTQKYGIKVMSMQFLLPKENTPVIWRGPLIAGMIREFLGRVAWGELDHLLIDLPPGTGDAPLTVMQDAKPTGVVVVSTPQELTAVIVEKAINMAEETNTSVLGLVENMSYFVCPNCGHKSYIFGEGKGESLAKKYNIGFFTSIPIEEELIKLADSGRIEEYEKDWFESAPFLEHHHHHH: soluble
- MKQNKLHYTTMIMTQFPDISIQSVESLGEGFRNYAILVNGDWVFRFPKSQQGADELNKEIQLLPLLVGCVKVNIPQYVYIGKRSDGNPFVGYRKVQGQILGEDGMAVFPDDAKDRLALQLAEFMNELSAFPVETAISAGVPVTNLKNKILLLSEAVEDQVFPLLDESLRDYLTLRFQSYMTHPVYTRYTPRLIHGDLSPDHFLTNLNSRQTPLTGIIDFGDAAISDPDYDYVYLLEDCGELFTRQVMAYRGEVDLDTHIRKVSLFVTFDQVSYLLEGLRARDQDWISEGLELLEEDKANNFGANSA: not soluble
- MAHHHHHHMSSSVKDILLEGSTCSTDMKLNDFLRSKLGGRGVVDTNEKVAMEMFVQDPETFIQNERLLRIITASPSYQELERELDEMKILLEAINKLHDEDVFSLEQWRGYEGKDTVTPLARGKINGVLTHVLREERRWAEERAVREKQVELTLTTTIEDVLFRGRVRVKDMKLNDFITMEMEGRGILRANRNVLLKEFFKDPTRYIHDAGVLNEIQASDAYLMAERAVRDEMDMEKDLRKLYKNGVSNLFGWSVASAEIRASVRDITKSFLDAALEEARKPTTTIAPIKMEGLYESVYNARWHHVVEVPGGEGTGMEVKKGRPPQQWTYKKVGYCLERDDGAEQYGAARLRLMVLASDKGRAVLVGGD: not soluble
- MGSDKIHHHHHHMGLFDFLKKGLQKTKETFFGRVVKLLKGKKLDDETREELEELLIQADVGVETTEYILERLEEKDGDALESLKEIILEILNFDTKLNVPPEPPFVIMVVGVNGTGKTTSCGKLAKMFVDEGKSVVLAAADTFRAAAIEQLKIWGERVGATVISHSEGADPAAVAFDAVAHALARNKDVVIIDTAGRLHTKKNLMEELRKVHRVVKKKIPDAPHETLLVIDATTGQNGLVQAKIFKEAVNVTGIILTKLDGTAKGGITLAIARELGIPIKFIGVGEKAEDLRPFDPEAFVEVLLSE: soluble
- SLAGPKESRDLTLEQFQVNFLDQYTIKHAFINGVNIYRCYPGAPPNNVQMVMQRSHGTEVPGIMVNLEGQQPTVVPLDASIIGAKKLTPTTTRPLHNVRVLRVNAVMRFHPLCRARFVGPNDISFGIRSATSQSIQEHIQELTDLMKKTQQADEQAMGALYSRSSALVSKLKMSGATSNVAFLEVPQTETRWGNPWTWYRAYLPTPLGDGVETWMTPIGDSGYYITVDFNFTESERQKNTENYQRARQLMDSVLQSVVIQKR: soluble
- MDVLSGTQVTDPEQLIVNREEVDDIELKMAELLSDLERKVLALYLDGRSYQEISEELNRHVKSIDNALQRVKRKLEKYLEYREISL: not soluble
- MGSDKIHHHHHHMIQLHVYEEIVNFKEEVTPFLEKNEQENNLILGVLQMVHQPIFMGIAKQGEEIAVVFLQTEEKKQIIVATSEISGVAIKELAKELTKIYPDIPGLIGDKKVVQHLAEEIAVLENKKTNVVMEQGVYELKEVKKKPSEDGFFREVSSDELTLIEEWIYQFCEDVNLPTTKEEAKQTAHTLITNHRLFGLEVDGKLVSVAAKTRPTKNNITVNFVYTPKEARKKGYASNCVAALSQRMLDEGYKTTTLYTDLANPTSNKIYQEIGYEQIAESVLIFLEK: not soluble
- MPAKDVQICPIAVDTTVFRSRTWDRLKFEIEYGLQRGTTANSYLISADKIALFDPPGESFTDNFVGTLIQRLDLNSLDYVILGHVNANRAHTLKLLLSLAPQATIICSNPAAQNLEKLLADAEVNNPIQVMKGNDHLDLGRGHELTFIPTPSPRYPGQLCTYDPRTEILFTDKLFGAHVCGDQVFDEGWTIYQEDRRYYFDCLLAPAAAQVSAALNKLEAYPAQTYAPSHGPLVRYGLRELTRNYQQWLSEQQAQALEHHHHHH: not soluble
